Assignment: determine reported % inhibition apPOL 180' for the given compounds.
biological target: UniProt Q8ILY1; assay: Fluorescence-based high-throughput DNA polymerase assay (molecular beacon), primary screen and dose-response; type: biochemical; details: DRC-1; 180'; concentration 2.5;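 note: test concentration in µM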
Sequence (Q8ILY1 entry or part of it): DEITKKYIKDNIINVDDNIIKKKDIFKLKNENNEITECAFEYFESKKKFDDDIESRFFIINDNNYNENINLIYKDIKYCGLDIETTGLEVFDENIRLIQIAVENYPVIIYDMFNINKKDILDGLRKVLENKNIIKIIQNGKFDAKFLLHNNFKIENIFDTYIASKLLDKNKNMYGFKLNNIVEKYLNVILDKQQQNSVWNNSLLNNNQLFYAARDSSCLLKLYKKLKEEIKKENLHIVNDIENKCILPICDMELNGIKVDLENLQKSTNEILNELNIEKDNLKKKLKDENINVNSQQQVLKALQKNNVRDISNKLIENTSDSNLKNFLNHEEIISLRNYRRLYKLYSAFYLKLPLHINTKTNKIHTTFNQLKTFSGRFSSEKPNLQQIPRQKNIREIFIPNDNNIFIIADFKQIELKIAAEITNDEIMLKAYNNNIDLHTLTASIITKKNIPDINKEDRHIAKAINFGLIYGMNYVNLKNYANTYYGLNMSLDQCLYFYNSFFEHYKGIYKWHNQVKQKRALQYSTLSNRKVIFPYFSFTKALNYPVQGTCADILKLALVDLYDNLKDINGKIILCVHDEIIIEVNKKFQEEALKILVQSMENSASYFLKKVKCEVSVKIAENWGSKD
Answers are plain numbers, in %.

Here is how some compounds turned out for % inhibition apPOL 180'.
Form field - read-out: % inhibition apPOL 180'; system: UniProt Q8ILY1; submitted item: `COc1cccc(Oc2c(C(F)(F)F)oc3cc(OC(=O)N(C)C)ccc3c2=O)c1`
22.4742

# query: % inhibition apPOL 180' | item `O=C1N/C(=N/c2ccccc2Cl)S/C1=C/c1ccc([N+](=O)[O-])o1` | system: UniProt Q8ILY1
-2.619

Test system UniProt Q8ILY1; read-out % inhibition apPOL 180'; what value for `O=C(CSc1nnc(-c2ccncc2)[nH]1)c1ccc(O)c(O)c1` ?
29.303

Reported % inhibition apPOL 180' for UniProt Q8ILY1, given `O=C(O)CC1=NN(c2cccc([N+](=O)[O-])c2)C(=O)C1` ?
13.4028

Field: % inhibition apPOL 180' (UniProt Q8ILY1). Entry: `O=[N+]([O-])/C=C/c1ccc(-c2ccc(Br)cc2)o1`
-3.116

# return % inhibition apPOL 180' for each item in the list
1. O=C1NCCCn2cc(S(=O)(=O)Nc3ccccc3)cc21
2. CC(C)(C)OC(=O)COc1ccc2cc(-c3ccccc3)c(=O)oc2c1
3. CC1(C)CC(=O)C2=C(C1)OC1=C(C(=O)CC(C)(C)C1)C2c1ccc(O)cc1
4. O=C(O)CCS(=O)(=O)c1ccc(-c2ccc(S(=O)(=O)CCC(=O)O)cc2)cc1
5. Cc1nn(CC(=O)NCCSCc2ccco2)c(C)c1Br

1: -6.967; 2: 5.717; 3: 2.939; 4: -2.177; 5: -4.52

Here are 8 compounds. What values of % inhibition apPOL 180' were reported for them?
1. COc1ccc(C)cc1NC(=O)Cn1ccc2c(=O)[nH]ccc21 [Molecule 15, COc1ccc(cc1NC(=O)Cn1ccc2c1cc[nH]c2=O)C]
2. Oc1ccc(N=Nc2ccccc2)c(O)c1
3. Nc1c(S(=O)(=O)O)cc(Nc2ccccc2)c2c1C(=O)c1ccccc1C2=O
4. Cc1ccc(-n2nnc(C(=O)O)c2-c2ccccn2)c(F)c1
5. COc1cc(NC(=O)c2ccccc2)c(OC)cc1NC(=O)Cc1cccs1
6. CC(=O)Nc1cc(C(=O)NC(C)C)c2ccc(C)nc2c1
7. CCOc1ccccc1-c1nc(-c2ccc(=O)[nH]c2)no1 [Molecule 76, CCOc1ccccc1c1onc(n1)c1ccc(=O)[nH]c1]
8. CN(C)C1C(c2ccccc2)=C(c2ccccc2)SC(c2ccccc2)C1[N+](=O)[O-] (centres unmarked)

1. -5.413
2. -4.521
3. 5.356
4. -5.444
5. 0.5437
6. -3.391
7. 0.4069
8. 1.708
